The entries below come with measured protein stability index values attached.
B1: IRX6 (parent)
chain: YPCLEKPRIWSLAHTATASAVEGA

- Variants of: B1
- assay.remarks: protein stability index of a GFP-peptide fusion (GPS, HEK-293T) (PSI 1-6); higher = more stable;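 also: lentivirally expressed fusions sorted by FACS into six bins by GFP to DsRed ratio, PSI derived from sequencing read proportions per bin multiplied by bin number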
- condition.description: c terminus: a fixed tail appended
reported.property: protein stability index

{"variant.identifier": "A20F", "reported.property": "protein stability index", "recorded.value": 1.69}
{"variant.identifier": "Y1P", "reported.property": "protein stability index", "recorded.value": 4.08}
{"variant.identifier": "W10I", "reported.property": "protein stability index", "recorded.value": 3.27}
{"variant.identifier": "T17M", "reported.property": "protein stability index", "recorded.value": 2.36}
{"variant.identifier": "H14V", "reported.property": "protein stability index", "recorded.value": 3.43}
{"variant.identifier": "S11D", "reported.property": "protein stability index", "recorded.value": 1.74}
{"variant.identifier": "W10R", "reported.property": "protein stability index", "recorded.value": 4.26}
{"variant.identifier": "K6M", "reported.property": "protein stability index", "recorded.value": 2.41}
{"variant.identifier": "E5K", "reported.property": "protein stability index", "recorded.value": 2.92}
{"variant.identifier": "W10A", "reported.property": "protein stability index", "recorded.value": 4.14}
{"variant.identifier": "A24E", "reported.property": "protein stability index", "recorded.value": 2.22}
{"variant.identifier": "A16Q", "reported.property": "protein stability index", "recorded.value": 2.45}
{"variant.identifier": "A18H", "reported.property": "protein stability index", "recorded.value": 2.15}
{"variant.identifier": "Y1A", "reported.property": "protein stability index", "recorded.value": 4.1}
{"variant.identifier": "L4P", "reported.property": "protein stability index", "recorded.value": 2.5}
{"variant.identifier": "S11A", "reported.property": "protein stability index", "recorded.value": 1.3}
{"variant.identifier": "P2R", "reported.property": "protein stability index", "recorded.value": 2.37}
{"variant.identifier": "T15W", "reported.property": "protein stability index", "recorded.value": 2.34}
{"variant.identifier": "A24D", "reported.property": "protein stability index", "recorded.value": 2.95}
{"variant.identifier": "L4A", "reported.property": "protein stability index", "recorded.value": 4.55}
{"variant.identifier": "C3E", "reported.property": "protein stability index", "recorded.value": 1.85}
{"variant.identifier": "Y1V", "reported.property": "protein stability index", "recorded.value": 3.89}
{"variant.identifier": "S19I", "reported.property": "protein stability index", "recorded.value": 2.52}
{"variant.identifier": "A13M", "reported.property": "protein stability index", "recorded.value": 1.35}
{"variant.identifier": "Y1M", "reported.property": "protein stability index", "recorded.value": 3.83}
{"variant.identifier": "S19R", "reported.property": "protein stability index", "recorded.value": 1.91}
{"variant.identifier": "E5H", "reported.property": "protein stability index", "recorded.value": 2.37}
{"variant.identifier": "P7K", "reported.property": "protein stability index", "recorded.value": 3.5}
{"variant.identifier": "A16T", "reported.property": "protein stability index", "recorded.value": 3.04}
{"variant.identifier": "E22M", "reported.property": "protein stability index", "recorded.value": 3.75}
{"variant.identifier": "W10N", "reported.property": "protein stability index", "recorded.value": 4.27}
{"variant.identifier": "T15G", "reported.property": "protein stability index", "recorded.value": 1.75}
{"variant.identifier": "L12K", "reported.property": "protein stability index", "recorded.value": 2.72}
{"variant.identifier": "G23Y", "reported.property": "protein stability index", "recorded.value": 3.63}
{"variant.identifier": "T15A", "reported.property": "protein stability index", "recorded.value": 2.74}
{"variant.identifier": "S19W", "reported.property": "protein stability index", "recorded.value": 3.1}
{"variant.identifier": "C3N", "reported.property": "protein stability index", "recorded.value": 1.37}
{"variant.identifier": "G23L", "reported.property": "protein stability index", "recorded.value": 2.7}
{"variant.identifier": "A24M", "reported.property": "protein stability index", "recorded.value": 2.52}
{"variant.identifier": "A20I", "reported.property": "protein stability index", "recorded.value": 2.52}
{"variant.identifier": "Y1H", "reported.property": "protein stability index", "recorded.value": 2.54}
{"variant.identifier": "E5Q", "reported.property": "protein stability index", "recorded.value": 3.22}
{"variant.identifier": "I9Y", "reported.property": "protein stability index", "recorded.value": 2.3}
{"variant.identifier": "E5G", "reported.property": "protein stability index", "recorded.value": 3.15}
{"variant.identifier": "Y1C", "reported.property": "protein stability index", "recorded.value": 2.82}
{"variant.identifier": "L4Q", "reported.property": "protein stability index", "recorded.value": 1.49}
{"variant.identifier": "E5N", "reported.property": "protein stability index", "recorded.value": 2.34}
{"variant.identifier": "Y1Q", "reported.property": "protein stability index", "recorded.value": 3.79}
{"variant.identifier": "A13Q", "reported.property": "protein stability index", "recorded.value": 2.46}
{"variant.identifier": "S19Y", "reported.property": "protein stability index", "recorded.value": 4.1}
{"variant.identifier": "P2H", "reported.property": "protein stability index", "recorded.value": 2.9}
{"variant.identifier": "R8H", "reported.property": "protein stability index", "recorded.value": 1.83}
{"variant.identifier": "L4W", "reported.property": "protein stability index", "recorded.value": 2.68}
{"variant.identifier": "A13E", "reported.property": "protein stability index", "recorded.value": 2.17}
{"variant.identifier": "P2W", "reported.property": "protein stability index", "recorded.value": 3.12}
{"variant.identifier": "S19V", "reported.property": "protein stability index", "recorded.value": 2.07}
{"variant.identifier": "H14F", "reported.property": "protein stability index", "recorded.value": 4.18}
{"variant.identifier": "E22L", "reported.property": "protein stability index", "recorded.value": 2.67}
{"variant.identifier": "S11C", "reported.property": "protein stability index", "recorded.value": 1.61}
{"variant.identifier": "S11Y", "reported.property": "protein stability index", "recorded.value": 2.16}
{"variant.identifier": "A13D", "reported.property": "protein stability index", "recorded.value": 2.71}
{"variant.identifier": "E5F", "reported.property": "protein stability index", "recorded.value": 3.7}
{"variant.identifier": "S11E", "reported.property": "protein stability index", "recorded.value": 1.99}
{"variant.identifier": "K6P", "reported.property": "protein stability index", "recorded.value": 2.1}
{"variant.identifier": "I9T", "reported.property": "protein stability index", "recorded.value": 1.51}
{"variant.identifier": "C3V", "reported.property": "protein stability index", "recorded.value": 1.66}
{"variant.identifier": "P2T", "reported.property": "protein stability index", "recorded.value": 3.4}
{"variant.identifier": "S11V", "reported.property": "protein stability index", "recorded.value": 1.99}
{"variant.identifier": "A18P", "reported.property": "protein stability index", "recorded.value": 3.41}
{"variant.identifier": "E5S", "reported.property": "protein stability index", "recorded.value": 2.98}
{"variant.identifier": "K6V", "reported.property": "protein stability index", "recorded.value": 2.61}
{"variant.identifier": "H14E", "reported.property": "protein stability index", "recorded.value": 1.84}
{"variant.identifier": "A24V", "reported.property": "protein stability index", "recorded.value": 3.01}
{"variant.identifier": "A16F", "reported.property": "protein stability index", "recorded.value": 5.06}
{"variant.identifier": "S11Q", "reported.property": "protein stability index", "recorded.value": 1.53}
{"variant.identifier": "W10M", "reported.property": "protein stability index", "recorded.value": 3.65}
{"variant.identifier": "I9C", "reported.property": "protein stability index", "recorded.value": 1.98}
{"variant.identifier": "S11H", "reported.property": "protein stability index", "recorded.value": 1.86}
{"variant.identifier": "P7C", "reported.property": "protein stability index", "recorded.value": 2.69}
{"variant.identifier": "E22P", "reported.property": "protein stability index", "recorded.value": 2.34}
{"variant.identifier": "I9G", "reported.property": "protein stability index", "recorded.value": 2.2}
{"variant.identifier": "W10V", "reported.property": "protein stability index", "recorded.value": 3.85}
{"variant.identifier": "T17K", "reported.property": "protein stability index", "recorded.value": 2}
{"variant.identifier": "T15C", "reported.property": "protein stability index", "recorded.value": 3.17}
